Origin of measurements: paper PMC4646422

- EXPERIMENTAL SYSTEM: AmpC β-lactamase (Escherichia coli)
- Sequence (P00811 20-377): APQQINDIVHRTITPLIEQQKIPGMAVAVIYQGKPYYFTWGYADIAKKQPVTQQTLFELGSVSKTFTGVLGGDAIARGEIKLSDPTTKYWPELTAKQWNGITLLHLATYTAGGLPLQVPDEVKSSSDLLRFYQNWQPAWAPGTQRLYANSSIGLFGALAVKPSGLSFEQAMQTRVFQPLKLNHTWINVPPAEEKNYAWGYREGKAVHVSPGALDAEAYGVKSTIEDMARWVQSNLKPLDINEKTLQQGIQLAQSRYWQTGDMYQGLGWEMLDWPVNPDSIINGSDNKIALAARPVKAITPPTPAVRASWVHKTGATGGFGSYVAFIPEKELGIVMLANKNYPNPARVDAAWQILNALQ
- RUN DESCRIPTION: biochemical
- Format: biochemical
- RUN CONDITIONS: IC50 vs AmpC β-lactamase, with DTT, with 1 mM DTT
PARAMETER: IC50 (µM)
Please give a number only; it is taken to be in µM.

Problem: Given the molecule `Cc1cc(O)c2c(c1)C(=O)c1cc(O)cc(O)c1C2=O` , write its reported IC50.
Result: 17

Problem: Given the molecule `COc1cc(O)c2c(c1)C(=O)c1cc(C)cc(O)c1C2=O` , write its reported IC50.
Result: 11

---

I'd be grateful if you could share measured IC50 for these entries.
- EXPERIMENTAL SYSTEM: malate dehydrogenase (MDH)
- RUN DESCRIPTION: Malate dehydrogenase
- Type: biochemical
- RUN CONDITIONS: read-out: IC50 vs MDH, with detergent; 50 mM potassium phosphate, pH 7.0 + 0.01% (v/v) Triton X-100; ND = not detected to precipitation limit

Problem: State IC50 (malate dehydrogenase (MDH)) of COc1cc(C2Oc3cc([C@H]4Oc5cc(O)cc(O)c5C(=O)[C@@H]4O)ccc3OC2CO)ccc1O (stereo partly shown) .
Result: > 100 µM

Problem: Please report the measured IC50 for `Oc1cc(O)c2cc(O)c(-c3cc(O)c(O)c(O)c3)[o+]c2c1` tested on malate dehydrogenase (MDH).
Result: > 100 µM

Problem: Name the recorded IC50 of `COc1cc(O)c2c(c1)C(=O)c1cc(C)cc(O)c1C2=O` , assay system malate dehydrogenase (MDH).
Result: > 20 µM

Problem: Return reported IC50 for target or system malate dehydrogenase (MDH), item `O=c1c(-c2ccc(O)cc2)coc2c([C@@H]3O[C@H](CO)[C@@H](O)[C@H](O)[C@H]3O)c(O)ccc12` .
Result: 156 µM

Problem: System malate dehydrogenase (MDH). Read-out IC50. Item `COc1cc(/C=C/C(=O)CC(=O)/C=C/c2ccc(O)c(OC)c2)ccc1O` . Report value.
Result: > 30 µM

Problem: // fetch IC50 for `C[C@]12CC[C@H](O)C[C@H]1CC[C@@H]1[C@@H]2CC[C@]2(C)[C@@H](c3ccc(=O)oc3)CC[C@]12O` ; system: malate dehydrogenase (MDH)
Result: > 200 µM

Problem: Recall the reported IC50 of `Oc1ccc2c(c1)OC[C@]1(O)Cc3cc(O)c(O)cc3[C@H]21` on malate dehydrogenase (MDH) and write it down.
Result: 84 µM

Problem: System malate dehydrogenase (MDH). Read-out IC50. Item `Cc1cc(O)c2c(c1)C(=O)c1cc(O)cc(O)c1C2=O` . Report value.
Result: > 100 µM

Problem: Give IC50; test system malate dehydrogenase (MDH); molecule `O=c1c(O)c(-c2ccc(O)cc2)oc2cc(O)cc(O)c12`
Result: > 100 µM

Problem: Recall the reported IC50 of `COc1cc2c(O)c3c(c(-c4ccc5c(c4)OCO5)c2cc1OC)C(=O)OC3` when tested on malate dehydrogenase (MDH).
Result: > 200 µM
